Data credit: ChEMBL document CHEMBL2086370

pKi: −log10 of the molar value.
Quick record of pKi values for Kappa-type opioid receptor (Homo sapiens, UniProt P41145).

- molecule: "CN(C)C(=O)C(Cc1ccccc1F)CN1CCC2(CC1)OCCc1ccsc12 (racemic)"
  target-of-assay: "Kappa-type opioid receptor (Homo sapiens, UniProt P41145)"
  reported-property: "pKi"
  measurement: "< 6.40"
- molecule: "CN(C)C(=O)C(Cc1ccccc1F)CN1CCC2(CC1)OCCc1cc(Cl)sc12.O=C(O)C(O)C(O)C(=O)O (single isomer, unassigned; (+))"
  target-of-assay: "Kappa-type opioid receptor (Homo sapiens, UniProt P41145)"
  reported-property: "pKi"
  measurement: "< 6.40"
- molecule: "CN(C)C(=O)C(Cc1ccccc1Cl)CN1CCC2(CC1)OCCc1cc(F)sc12 (single isomer, unassigned; (+))"
  target-of-assay: "Kappa-type opioid receptor (Homo sapiens, UniProt P41145)"
  reported-property: "pKi"
  measurement: "< 6.40"
- molecule: "CN(C)C(=O)C(Cc1ccccc1Cl)CN1CCC2(CC1)OCCc1cc(Cl)sc12.O=C(O)C(O)C(O)C(=O)O (single isomer, unassigned; (-))"
  target-of-assay: "Kappa-type opioid receptor (Homo sapiens, UniProt P41145)"
  reported-property: "pKi"
  measurement: "< 6.40"
- molecule: "CN(C)C(=O)C(CN1CCC2(CC1)OCCc1ccsc12)Cn1cccn1 (racemic)"
  target-of-assay: "Kappa-type opioid receptor (Homo sapiens, UniProt P41145)"
  reported-property: "pKi"
  measurement: "< 6.40"

Query block: Give pKi for CN(C)C(=O)C(Cc1ccccc1Cl)CN1CCC2(CC1)OCCc1ccsc12 (racemic)
Result block: < 6.40

Query block: Give pKi for `CN(C)C(=O)[C@@H](Cc1ccccc1F)CN1CCC2(CC1)OCCc1cc(F)sc12.O=C(O)C(O)C(O)C(=O)O`
Result block: < 6.40

Query block: Give pKi for CN(C)C(=O)C(Cc1cscn1)CN1CCC2(CC1)OCc1ccc(F)cc12 (stereo not given)
Result block: < 6.40

Query block: Give pKi for `Cc1cccc2c1CC[C@H](CN1CCC(c3c(Cl)cccc3Cl)CC1)C[C@@H]2O`
Result block: < 6.40

Query block: Give pKi for CN(C)C(=O)C(Cc1c(F)cccc1F)CN1CCC2(CC1)OCCc1ccsc12 (racemic)
Result block: < 6.40

* * *

# Lookup of reported logD keyed by entry
Test: Lipophilicity, log D of the compound at pH 7.4 by potentiometric method
Format: physicochemical
Conditions: buffer, read-out: logD
Reply: number alone, nothing else.

- compound: "CN(C)C(=O)[C@@H](Cc1ccccc1F)CN1CCC2(CC1)OCCc1cc(F)sc12.O=C(O)C(O)C(O)C(=O)O"
  measurement: 3.89
- compound: "CN(C(=O)C(Cc1ccccc1Cl)CN1CCC2(CC1)OCCc1cc(F)sc12)C1CC1 (single isomer, unassigned; (-))"
  measurement: 5.52
- compound: "CC(C)N(C)C(=O)[C@@H](Cc1ccccc1F)CN1CCC2(CC1)OCCc1cc(F)sc12"
  measurement: 4.47

Query block: Give logD for CNC(=O)C(Cc1ccccc1Cl)CN1CCC2(CC1)OCCc1cc(F)sc12 (single isomer, unassigned; (-))
Result block: 3.9

* * *

Experiment: Lipophilicity, log D of the compound at pH 7.4 by potentiometric method
Format: physicochemical
Conditions: buffer, read-out: logD
# Lookup of reported logD keyed by entry
Reply: number alone, nothing else.

Below are worked cases with known answers.
- compound: "CN(C)C(=O)C(CN1CCC2(CC1)OCCc1ccsc12)Cn1cccn1.O=C(O)C(O)C(O)C(=O)O (single isomer, unassigned; (-))"
  measurement: 2.03
- compound: "CN(C)C(=O)C(Cc1ccccc1Cl)CN1CCC2(CC1)OCCc1cc(Cl)sc12.O=C(O)C(O)C(O)C(=O)O (single isomer, unassigned; (-))"
  measurement: 4.61
- compound: "CN(C(=O)C(Cc1ccccc1F)CN1CCC2(CC1)OCCc1cc(F)sc12)C1CC1 (single isomer, unassigned; (-))"
  measurement: 4.77
- compound: "NC(=O)C(Cc1ccccc1Cl)CN1CCC2(CC1)OCCc1cc(Cl)sc12 (configuration not stated)"
  measurement: 4.58
- compound: "CN(C)C(=O)C(Cc1ccccc1F)CN1CCC2(CC1)OCCc1cc(Cl)sc12.O=C(O)C(O)C(O)C(=O)O (single isomer, unassigned; (+))"
  measurement: 4.27
- compound: "CNC(=O)C(Cc1ccccc1F)CN1CCC2(CC1)OCCc1cc(Cl)sc12 (single isomer, unassigned; (-))"
  measurement: 4.19

Shift focus to the following entry.
Query block: Give logD for `O=C1NCN(c2ccccc2)C12CCN([C@H]1CC[C@@H]3CCCc4cccc1c43)CC2`
Result block: 3.46
